Could you please report measured EC50 for the items listed next?
Tested on: Huh-7 cells containing the self-replicating, subgenomic HCV replicon
Assay: HCV replicon assay (luciferase reporter)
Type: cell-based
Conditions: Hepatitis C virus, Huh-7, 72 h
Protocol: Huh-7 cells containing the self-replicating, subgenomic HCV replicon with a stable luciferase (LUC) reporter were cultured in Dulbecco's modified Eagle's medium (DMEM) containing 2 mM L-glutamine and supplemented with 10% heat-inactivated fetal bovine serum (FBS), 1% penicillin-streptomyocin, 1% nonessential amino acids, and 0.5 mg/mL G418. On the first day, 5,000 HCV replicon cells were plated per well in a 96-well plate. […]

Find the measured EC50: item C[C@H](NP(=S)(OC[C@@]1(N=[N+]=[N-])O[C@@H](n2ccc(=O)[nH]c2=O)[C@H](O)[C@@H]1O)Oc1ccccc1)C(=O)OCC(C)(C)C (stereo partly drawn) , target or system Huh-7 cells containing the self-replicating, subgenomic HCV replicon.
10 to 100 µM

What do you get for CC(C)OC(=O)[C@@H](NP(=S)(OC[C@H]1O[C@@H](n2ccc(=O)[nH]c2=O)[C@](C)(O)[C@@H]1O)Oc1ccccc1)C(C)C (stereo partly drawn) ?
10 to 100 µM

What do you get for CCC(=O)O[C@@H]1[C@@H](COP(=S)(N[C@@H](C)C(=O)OC(C)C)Oc2ccccc2)O[C@@H](n2ccc(=O)[nH]c2=O)[C@]1(C)OC(=O)CC (stereo partly drawn) ?
< 1 µM

What do you get for C[C@H](NP(=S)(OC[C@H]1O[C@@H](n2cnc3c(=O)[nH]c(N)nc32)[C@](C)(F)[C@@H]1O)Oc1ccccc1)C(=O)OCC(C)(C)C (stereo partly drawn) ?
< 1 µM

For each of the molecules below, note its EC50.
1. CC(C)OC(=O)CNP(=S)(OC[C@H]1O[C@@H](n2ccc(=O)[nH]c2=O)[C@](C)(O)[C@@H]1O)Oc1ccccc1 (stereo partly drawn)
2. CC[C@H](NP(=S)(OC[C@H]1O[C@@H](n2ccc(=O)[nH]c2=O)[C@](C)(O)[C@@H]1O)Oc1ccccc1)C(=O)OC(C)C (stereo partly drawn)

["1 to 10 µM", "< 1 µM"]
